The reported numbers originate from paper PMC8632988.

Molecular target: EPHA1 (Homo sapiens)
Sequence (P21709 26-976): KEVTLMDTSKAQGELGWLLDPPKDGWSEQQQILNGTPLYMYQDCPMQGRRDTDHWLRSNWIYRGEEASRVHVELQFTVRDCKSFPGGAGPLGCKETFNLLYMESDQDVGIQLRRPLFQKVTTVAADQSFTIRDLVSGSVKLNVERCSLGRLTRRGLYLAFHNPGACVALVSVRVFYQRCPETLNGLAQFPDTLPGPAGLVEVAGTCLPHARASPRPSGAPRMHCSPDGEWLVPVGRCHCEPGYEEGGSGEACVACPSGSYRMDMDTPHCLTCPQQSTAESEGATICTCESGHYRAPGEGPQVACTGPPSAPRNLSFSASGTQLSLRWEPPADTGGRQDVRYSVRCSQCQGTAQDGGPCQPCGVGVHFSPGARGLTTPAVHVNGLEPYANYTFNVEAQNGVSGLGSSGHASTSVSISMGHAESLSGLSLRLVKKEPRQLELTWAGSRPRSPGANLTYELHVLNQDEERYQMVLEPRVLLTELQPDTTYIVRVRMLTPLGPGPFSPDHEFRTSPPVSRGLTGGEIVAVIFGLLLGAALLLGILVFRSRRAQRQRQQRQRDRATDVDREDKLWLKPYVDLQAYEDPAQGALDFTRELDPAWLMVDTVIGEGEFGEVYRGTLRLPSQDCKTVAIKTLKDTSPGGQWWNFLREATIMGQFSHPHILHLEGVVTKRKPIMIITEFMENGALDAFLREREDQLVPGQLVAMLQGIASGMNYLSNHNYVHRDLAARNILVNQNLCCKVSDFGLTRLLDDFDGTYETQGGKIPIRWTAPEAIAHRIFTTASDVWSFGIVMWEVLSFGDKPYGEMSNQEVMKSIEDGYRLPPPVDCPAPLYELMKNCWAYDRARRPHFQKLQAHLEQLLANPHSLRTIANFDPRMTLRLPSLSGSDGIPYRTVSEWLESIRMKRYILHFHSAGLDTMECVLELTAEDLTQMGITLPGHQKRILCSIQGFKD
test-readout: IC50
Write the numeric value and follow it with the unit.

Problem: Can you look up IC50 on EPHA1 (Homo sapiens) for COc1cc(Nc2ncnc(Nc3cc4c(cn3)NC(=O)C(C)(C)O4)n2)cc(OC)c1OC [MT-SYK-03] ?
Result: 457 nM

* * *

Assay: Tissue distribution after single oral administration in rats
Format: in vivo, rat
Conditions: male, Wistar, rat, muscle, po, 100 mg/kg, muscle, 100 mg/kg PO, male Wistar rats, 2 h, mean; read-out: Muscle concentration, Mean
test-readout: concentration at 2 h (ng/mL)
Express it in ng/mL; write the number only.

Problem: If you can, please state the reported concentration at 2 h value of COc1cc(Nc2ncnc(Nc3cc4c(cn3)NC(=O)C(C)(C)O4)n2)cc(OC)c1OC [MT-SYK-03] .
Result: 436

* * *

Molecular target: FLT3 (Homo sapiens)
Sequence (P36888 27-993): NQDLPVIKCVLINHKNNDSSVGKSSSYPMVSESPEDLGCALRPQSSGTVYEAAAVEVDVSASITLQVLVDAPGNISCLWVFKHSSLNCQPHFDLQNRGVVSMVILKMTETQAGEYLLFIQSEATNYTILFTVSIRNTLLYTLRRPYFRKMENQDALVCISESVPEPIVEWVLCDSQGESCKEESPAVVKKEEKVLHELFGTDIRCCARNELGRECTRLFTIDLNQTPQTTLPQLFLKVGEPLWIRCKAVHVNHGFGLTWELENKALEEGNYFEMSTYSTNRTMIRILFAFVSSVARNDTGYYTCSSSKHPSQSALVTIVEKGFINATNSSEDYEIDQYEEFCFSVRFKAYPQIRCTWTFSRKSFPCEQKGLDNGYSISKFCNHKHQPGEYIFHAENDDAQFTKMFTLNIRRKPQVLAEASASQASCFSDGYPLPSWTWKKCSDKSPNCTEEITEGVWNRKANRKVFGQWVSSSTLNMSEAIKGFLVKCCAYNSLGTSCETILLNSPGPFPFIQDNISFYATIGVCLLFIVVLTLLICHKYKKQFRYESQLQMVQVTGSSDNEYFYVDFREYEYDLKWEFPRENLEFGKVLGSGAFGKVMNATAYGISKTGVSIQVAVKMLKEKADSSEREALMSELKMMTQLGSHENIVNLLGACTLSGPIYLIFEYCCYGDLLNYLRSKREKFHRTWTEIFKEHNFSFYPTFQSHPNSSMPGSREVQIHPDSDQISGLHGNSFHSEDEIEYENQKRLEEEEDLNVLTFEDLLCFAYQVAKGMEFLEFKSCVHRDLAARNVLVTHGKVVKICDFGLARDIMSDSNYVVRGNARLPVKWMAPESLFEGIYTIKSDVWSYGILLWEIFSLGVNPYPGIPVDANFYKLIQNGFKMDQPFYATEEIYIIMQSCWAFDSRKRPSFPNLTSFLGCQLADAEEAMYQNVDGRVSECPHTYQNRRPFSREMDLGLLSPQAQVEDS
test-readout: IC50 (µM)
Express it in µM; write the number only.

Problem: If you can, please state the reported IC50 value of "COc1cc(Nc2ncnc(Nc3cc4c(cn3)NC(=O)C(C)(C)O4)n2)cc(OC)c1OC" .
Result: 0.023

* * *

Experiment: Tissue distribution after single oral administration in rats
Type: in vivo, rat
Conditions: rat; kidney, 100 mg/kg PO, male Wistar rats, Estimated Value
test-readout: Cmax (ng/mL)
Express it in ng/mL; write the number only.

Problem: If you can, please state the reported Cmax value of COc1cc(Nc2ncnc(Nc3cc4c(cn3)NC(=O)C(C)(C)O4)n2)cc(OC)c1OC [MT-SYK-03] .
Result: 2800

* * *

Molecular target: LYN (Homo sapiens, UniProt P07948)
Construct: purchased Reaction Biology Corporation (assay service)
Sequence (P07948 whole entry): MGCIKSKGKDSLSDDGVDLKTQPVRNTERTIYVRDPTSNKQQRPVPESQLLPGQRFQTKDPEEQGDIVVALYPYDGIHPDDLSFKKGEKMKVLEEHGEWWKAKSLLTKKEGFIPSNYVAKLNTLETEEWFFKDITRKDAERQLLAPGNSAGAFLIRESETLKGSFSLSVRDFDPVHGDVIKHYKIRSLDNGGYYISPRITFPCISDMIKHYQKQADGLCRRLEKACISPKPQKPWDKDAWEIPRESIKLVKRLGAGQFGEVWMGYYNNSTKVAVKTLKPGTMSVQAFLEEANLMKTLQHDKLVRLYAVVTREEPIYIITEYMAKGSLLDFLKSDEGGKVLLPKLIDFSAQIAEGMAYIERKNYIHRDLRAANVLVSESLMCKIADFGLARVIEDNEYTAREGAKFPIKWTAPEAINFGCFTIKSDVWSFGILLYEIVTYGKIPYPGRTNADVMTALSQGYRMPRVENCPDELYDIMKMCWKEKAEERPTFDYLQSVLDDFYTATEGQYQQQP
Experiment: Kinase selectivity profile assay
Type: biochemical
Details: 10-dose mode, threefold serial dilution from 10 μM
test-readout: IC50 (nM)
Express it in nM; write the number only.

Problem: If you can, please state the reported IC50 value of "COc1cc(Nc2ncnc(Nc3cc4c(cn3)NC(=O)C(C)(C)O4)n2)cc(OC)c1OC" .
Result: 8.8

* * *

Test: Tissue distribution after single oral administration in rats
Assay type: in vivo, rat
Settings: male, Wistar, rat, bone, po, 100 mg/kg, bone, 100 mg/kg PO, male Wistar rats, 8 h, mean; read-out: Bone concentration, Mean
test-readout: concentration at 8 h (ng/mL)
Express it in ng/mL; write the number only.

Problem: If you can, please state the reported concentration at 8 h value of "COc1cc(Nc2ncnc(Nc3cc4c(cn3)NC(=O)C(C)(C)O4)n2)cc(OC)c1OC" .
Result: 708

* * *

Assay: Pharmacokinetics after single oral administration to rats
Format: in vivo, rat
Conditions: male, Wistar, rat, plasma, oral, 100 mg/kg, Table S6, 100 mg/kg PO, male Wistar rats, 24 h, mean of Rat#1-6
test-readout: concentration at 24 h (ng/mL)
Express it in ng/mL; write the number only.

Problem: If you can, please state the reported concentration at 24 h value of "COc1cc(Nc2ncnc(Nc3cc4c(cn3)NC(=O)C(C)(C)O4)n2)cc(OC)c1OC" .
Result: 9.15

* * *

Test: Pharmacokinetics after single oral administration to rats
Format: in vivo, rat
Conditions: male, Wistar, rat, plasma, oral, 100 mg/kg, Table S7, 100 mg/kg PO, male Wistar rats, 0.5 h, individual Rat#7-12; read-out: Plasma concentration
test-readout: concentration at 0.5 h (ng/mL)
Express it in ng/mL; write the number only.

Problem: If you can, please state the reported concentration at 0.5 h value of "COc1cc(Nc2ncnc(Nc3cc4c(cn3)NC(=O)C(C)(C)O4)n2)cc(OC)c1OC" .
Result: 716
